Tested on: PDE II (Cavia porcellus)
measurement_protocol: Inhibition of cAMP PDE II enzyme in guinea pig at 1E-4M concentration.
Record form. Attribute: inhibition. Fill in for each entry.
I only need the number, in %, no unit after it.

Quick one: inhibition of `O=C1CCC(c2ccc(NC3=NCCO3)cc2)=NN1` ?
36

Could you do the same for `Nc1cc(-c2ccc(-n3ccnc3)cc2)nnc1O` , please?
44

Could you do the same for CCC1CC(=O)NN=C1c1ccc(-n2ccnc2)cc1 (stereo not drawn) , please?
35

----------
target_under_test: Phosphodiesterase 1 (Homo sapiens, UniProt P54750+Q01064+Q14123)
measurement_protocol: Inhibition of cGMP PDE I enzyme in guinea pig at 1E-5M concentration
Assay type: protein assay
assay_context: Cavia porcellus; target entry is the homologue from another species
# inhibition >= 10% gives Criterion met, anything below gives Criterion not met

API: above_or_equal(metric=inhibition, cutoff=10%) for item `CC(=O)OCCN1N=C(c2ccc(-n3ccnc3)cc2)CCC1=O`
Criterion not met

Could you do the same for `O=C1CCC(c2ccc(-n3ccnc3)cc2)=NN1Cc1ccccc1` , please?
Criterion met

Could you do the same for `O=C1CCC(c2ccc(-n3cccc3)cc2)=NN1` , please?
Criterion met

Could you do the same for CC1CC(=O)NN=C1c1ccc(-n2cnc3c2CCCC3)cc1 (stereo unspecified) [TETRAHYDROBENXIMIDAZOLE] , please?
Criterion met

Could you do the same for `O=C1CCC(c2ccc(-c3nn[nH]n3)cc2)=NN1` , please?
Criterion met

Could you do the same for `CC1(C)CC(c2ccc(-n3ccnc3)cc2)=NNC1=O` , please?
Criterion not met

Could you do the same for CC1CC(c2ccc(-n3ccnc3)cc2)=NNC1=O (stereo unspecified) , please?
Criterion not met

Could you do the same for `NNC(=O)c1cc(-c2ccc(-n3ccnc3)cc2)nnc1O` , please?
Criterion not met

Could you do the same for `O=C1CCC(c2ccc(-n3cnc4c3CCCC4)cc2)=NN1` , please?
Criterion not met

Could you do the same for O=C1NN=C(c2ccc(-n3ccnc3)cc2)C2CCCCC12 (stereo unspecified) , please?
Criterion not met

Could you do the same for `O=C1CCC(c2cccc(-n3ccnc3)c2)=NN1` , please?
Criterion not met

Could you do the same for `Cn1nc(-c2ccc(-n3ccnc3)cc2)ccc1=O` , please?
Criterion not met

Could you do the same for `O=C1CCC(c2ccc(-n3cnc4ccccc43)cc2)=NN1` , please?
Criterion not met

Could you do the same for CCC1CC(=O)NN=C1c1ccc(-n2ccnc2)cc1 (stereo unspecified) , please?
Criterion not met

Could you do the same for `O=C1CCC(c2ccc(-n3cnnc3)cc2)=NN1` , please?
Criterion met

Could you do the same for `Oc1ccc(-c2ccc(-n3cnc4c3CCCC4)cc2)nn1` , please?
Criterion met

Could you do the same for `O=C1CCC(c2ccc(NC3=NCCS3)cc2)=NN1` , please?
Criterion met

Could you do the same for CC1CC(O)=NN=C1c1ccc(-n2ccnc2)cc1 (stereo unspecified) , please?
Criterion not met

Could you do the same for `Oc1ccc(-c2ccc(-n3ccnc3)cc2)nn1` , please?
Criterion not met

Could you do the same for `CSc1nccn1-c1ccc(C2=NNC(=O)CC2)cc1` , please?
Criterion met

----------
measurement_protocol: Ratio of IC50 values for PDE III and PDE II.
Record form. Attribute: Ratio. Fill in for each entry.
Form: value (number only, do not type unit).

Quick one: Ratio of `O=C1CCC(c2ccc(-n3cnc4ccccc43)cc2)=NN1` ?
28.5

Could you do the same for `O=C1CCC(c2cccc(-n3ccnc3)c2)=NN1` , please?
121

Could you do the same for `Nc1cc(-c2ccc(-n3ccnc3)cc2)nnc1O` , please?
200

Could you do the same for `CN1N=C(c2ccc(-n3ccnc3)cc2)CCC1=O` , please?
297

----------
target_under_test: cGMP-dependent 3',5'-cyclic phosphodiesterase (Homo sapiens, UniProt O00408)
Sequence (O00408 whole entry): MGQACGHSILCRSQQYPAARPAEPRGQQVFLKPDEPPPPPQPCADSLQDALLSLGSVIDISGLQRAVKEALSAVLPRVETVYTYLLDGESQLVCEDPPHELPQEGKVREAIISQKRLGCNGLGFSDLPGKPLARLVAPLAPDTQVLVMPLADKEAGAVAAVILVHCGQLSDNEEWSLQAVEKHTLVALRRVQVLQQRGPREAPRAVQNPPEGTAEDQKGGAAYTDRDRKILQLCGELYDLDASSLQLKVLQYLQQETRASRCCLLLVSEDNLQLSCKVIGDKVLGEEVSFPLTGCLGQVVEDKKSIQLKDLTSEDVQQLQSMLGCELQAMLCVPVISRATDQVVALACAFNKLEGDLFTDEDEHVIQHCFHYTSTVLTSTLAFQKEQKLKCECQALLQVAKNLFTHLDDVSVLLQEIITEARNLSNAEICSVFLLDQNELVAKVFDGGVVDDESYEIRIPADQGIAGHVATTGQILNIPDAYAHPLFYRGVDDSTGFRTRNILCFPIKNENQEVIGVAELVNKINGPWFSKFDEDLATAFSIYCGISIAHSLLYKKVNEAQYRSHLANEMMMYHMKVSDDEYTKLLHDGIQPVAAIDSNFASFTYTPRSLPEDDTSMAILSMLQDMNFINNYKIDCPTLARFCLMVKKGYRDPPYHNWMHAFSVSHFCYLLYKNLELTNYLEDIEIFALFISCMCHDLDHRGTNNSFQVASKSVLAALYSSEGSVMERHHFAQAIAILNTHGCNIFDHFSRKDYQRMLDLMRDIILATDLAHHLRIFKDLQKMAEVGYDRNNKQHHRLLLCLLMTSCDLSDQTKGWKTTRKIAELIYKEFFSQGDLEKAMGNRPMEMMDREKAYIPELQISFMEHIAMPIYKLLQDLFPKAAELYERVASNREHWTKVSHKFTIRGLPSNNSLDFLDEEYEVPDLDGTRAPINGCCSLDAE
measurement_protocol: Inhibition of cAMP PDE II enzyme in guinea pig at 1E-5M concentration
assay_context: Cavia porcellus; target entry is the homologue from another species
measured_quantity: inhibition (%)
I only need the number, in %, no unit after it.

Quick one: inhibition of `O=C1CCC(c2ccc(-n3cnc4c3CCCC4)cc2)=NN1` ?
20

Could you do the same for `NNC(=O)c1cc(-c2ccc(-n3ccnc3)cc2)nnc1O` , please?
20

Could you do the same for `Nc1cc(-c2ccc(-n3ccnc3)cc2)nnc1O` , please?
13

Could you do the same for `Cc1nccn1-c1ccc(C2=NNC(=O)CC2)cc1` , please?
8

Could you do the same for `CC(=O)OCCN1N=C(c2ccc(-n3ccnc3)cc2)CCC1=O` , please?
23

Could you do the same for `O=C1CCC(c2ccc(-n3cccc3)cc2)=NN1` , please?
20

Could you do the same for `CSc1nccn1-c1ccc(C2=NNC(=O)CC2)cc1` , please?
10

Could you do the same for O=C1NN=C(c2ccc(-n3ccnc3)cc2)C2CCCCC12 (configuration not stated) , please?
14

Could you do the same for `CCc1nc(C)cn1-c1ccc(C2=NNC(=O)CC2)cc1` , please?
14

Could you do the same for `CC1(C)CC(=O)NN=C1c1ccc(-n2ccnc2)cc1` , please?
17

Could you do the same for `O=C1CCC(c2ccc(-n3cnc(CO)c3)cc2)=NN1` , please?
6

Could you do the same for `Cc1cc(O)nnc1-c1ccc(-n2ccnc2)cc1` , please?
4

----------
target_under_test: Phosphodiesterase 1 (Homo sapiens, UniProt P54750+Q01064+Q14123)
measurement_protocol: Inhibition of cAMP PDE I enzyme in guinea pig at 1E-4M concentration.
Format: protein assay
assay_context: Cavia porcellus; target entry is the homologue from another species
# inhibition >= 20% gives Condition met, anything below gives Condition not met

API: above_or_equal(metric=inhibition, cutoff=20%) for item `O=C1CCC(c2ccc(-n3ccnc3)cc2)=NN1`
Condition not met

Could you do the same for `O=C1CCC(c2ccc(NC3=NCCO3)cc2)=NN1` , please?
Condition met

Could you do the same for CC1CC(=O)NN=C1c1ccc(-n2cnc3c2CCCC3)cc1 (configuration not stated) [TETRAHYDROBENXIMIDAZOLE] , please?
Condition met

Could you do the same for `O=C1CCC(c2ccc(-n3cnc4c3CCCC4)cc2)=NN1` , please?
Condition met

Could you do the same for `CCc1nc(C)cn1-c1ccc(C2=NNC(=O)CC2)cc1` , please?
Condition met

Could you do the same for `Cc1cc(O)nnc1-c1ccc(-n2ccnc2)cc1` , please?
Condition met

Could you do the same for `O=C1CCC(c2ccc(-n3ccnc3)cc2)=NN1Cc1ccccc1` , please?
Condition met

Could you do the same for `O=C1CCC(c2ccc(-n3cnc(CO)c3)cc2)=NN1` , please?
Condition not met

Could you do the same for `Oc1ccc(-c2ccc(-n3ccnc3)cc2)nn1` , please?
Condition not met

Could you do the same for `O=C1CCC(c2cccc(-n3ccnc3)c2)=NN1` , please?
Condition not met

Could you do the same for `O=C1CCC(c2ccc(-n3cnc4ccccc43)cc2)=NN1` , please?
Condition met

----------
Record form. Attribute: inhibition. Fill in for each entry.
target_under_test: Phosphodiesterase 3 (Homo sapiens, UniProt Q14432+Q13370)
measurement_protocol: Inhibition of cAMP PDE III enzyme in guinea pig at 1E-4M concentration.
Assay type: protein assay
assay_context: Cavia porcellus; target entry is the homologue from another species
I only need the number, in %, no unit after it.

Quick one: inhibition of CC1CC(=O)NN=C1c1ccc(-n2cnc3c2CCCC3)cc1 (stereo not given) [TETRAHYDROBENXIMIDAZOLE] ?
90

Could you do the same for `O=C1CCC(c2ccc(-n3cnc(CO)c3)cc2)=NN1` , please?
68

Could you do the same for `O=C1CCC(c2ccc(-n3cnc4c3CCCC4)cc2)=NN1` , please?
87

Could you do the same for `Nc1cc(-c2ccc(-n3ccnc3)cc2)nnc1O` , please?
64

Could you do the same for `O=C1CCC(c2ccc(-n3cnc4ccccc43)cc2)=NN1` , please?
88

----------
Record form. Attribute: inhibition. Fill in for each entry.
target_under_test: cGMP-dependent 3',5'-cyclic phosphodiesterase (Homo sapiens)
measurement_protocol: Inhibition of cGMP PDE II enzyme in guinea pig at 1E-5M concentration
assay_context: Cavia porcellus; target entry is the homologue from another species
I only need the number, in %, no unit after it.

Quick one: inhibition of `O=C1CCC(c2cccc(-n3ccnc3)c2)=NN1` ?
10

Could you do the same for `CC(=O)OCCN1N=C(c2ccc(-n3ccnc3)cc2)CCC1=O` , please?
11

Could you do the same for `O=C1CCC(c2ccc(NC3=NCCS3)cc2)=NN1` , please?
33

Could you do the same for `Cc1cc(O)nnc1-c1ccc(-n2ccnc2)cc1` , please?
8

Could you do the same for `CC1(C)CC(=O)NN=C1c1ccc(-n2ccnc2)cc1` , please?
6

Could you do the same for `O=C1CCC(c2ccc(-n3cncn3)cc2)=NN1` , please?
7

Could you do the same for O=C1NN=C(c2ccc(-n3ccnc3)cc2)C2CCCCC12 (stereo not drawn) , please?
8

Could you do the same for `NNC(=O)c1cc(-c2ccc(-n3ccnc3)cc2)nnc1O` , please?
12
